Test system: H3255
protocol: relative viability (nuclei count vs DMSO), 5 days (fraction); higher = more cells survive
condition.details: first compound 0.1581 µM
Note to self: relative viability under 0.5 means Satisfied, ties and anything higher get Not satisfied.

compound	category.label
COc1cc2nccc(Oc3ccc(NC(=O)Nc4cc(C)on4)c(Cl)c3)c2cc1OC [Tivozanib] + C[C@@H](Oc1cc(-c2cnn(C3CCNCC3)c2)cnc1N)c1c(Cl)ccc(F)c1Cl [Crizotinib] (partner 1 µM)	Not satisfied
Nc1ccn([C@@H]2O[C@H](CO)[C@@H](O)[C@@H]2O)c(=O)n1 [Cytarabine] + Nc1nc2[nH]cc(CCc3ccc(C(=O)N[C@@H](CCC(=O)O)C(=O)O)cc3)c2c(=O)[nH]1 [Pemetrexed] (partner 0.2 µM)	Not satisfied
COc1cc2nccc(Oc3ccc(NC(=O)Nc4cc(C)on4)c(Cl)c3)c2cc1OC [Tivozanib] + O=C(c1cc(Cc2n[nH]c(=O)c3ccccc23)ccc1F)N1CCN(C(=O)C2CC2)CC1 [Olaparib] (partner 8 µM)	Not satisfied
COc1cc2nccc(Oc3ccc(NC(=O)Nc4cc(C)on4)c(Cl)c3)c2cc1OC [Tivozanib] + CC(=O)Nc1cccc(-n2c(=O)n(C3CC3)c(=O)c3c(Nc4ccc(I)cc4F)n(C)c(=O)c(C)c32)c1 [Trametinib] (partner 0.02 µM)	Not satisfied
Nc1ccn([C@@H]2O[C@H](CO)[C@@H](O)[C@@H]2O)c(=O)n1 [Cytarabine] + CS(=O)(=O)CCNCc1ccc(-c2ccc3ncnc(Nc4ccc(OCc5cccc(F)c5)c(Cl)c4)c3c2)o1 [Lapatinib] (partner 2 µM)	Satisfied
Nc1ccn([C@@H]2O[C@H](CO)[C@@H](O)[C@@H]2O)c(=O)n1 [Cytarabine] + CC(=O)c1c(C)c2cnc(Nc3ccc(N4CCNCC4)cn3)nc2n(C2CCCC2)c1=O [Palbociclib] (partner 0.5 µM)	Satisfied
COc1cc2nccc(Oc3ccc(NC(=O)Nc4cc(C)on4)c(Cl)c3)c2cc1OC [Tivozanib] + N=C(N)NC(=N)NCCc1ccccc1 [Phenformin] (partner 250 µM)	Satisfied
Nc1ccn([C@@H]2O[C@H](CO)[C@@H](O)[C@@H]2O)c(=O)n1 [Cytarabine] + COc1cc2c(Oc3ccc(NC(=O)C4(C(=O)Nc5ccc(F)cc5)CC4)cc3F)ccnc2cc1OCCCN1CCOCC1 [Foretinib] (partner 0.25 µM)	Not satisfied
COc1cc2nccc(Oc3ccc(NC(=O)Nc4cc(C)on4)c(Cl)c3)c2cc1OC [Tivozanib] + Nc1ncn([C@H]2C[C@H](O)[C@@H](CO)O2)c(=O)n1 [Decitabine] (partner 2 µM)	Not satisfied

---

Tested on: NCI-H1792
protocol: relative viability (nuclei count vs DMSO), 5 days (fraction); higher = more cells survive
condition.details: first compound 0.02 µM
Note to self: relative viability under 0.08 means Y, ties and anything higher get N.

compound	category.label
CC(=O)O[C@@]12CO[C@@H]1C[C@H](O)[C@@]1(C)C(=O)[C@H](O)C3=C(C)[C@@H](OC(=O)[C@H](O)[C@@H](NC(=O)OC(C)(C)C)c4ccccc4)C[C@@](O)([C@@H](OC(=O)c4ccccc4)[C@H]21)C3(C)C [Docetaxel] + CC1(C)CCC(c2ccc(Cl)cc2)=C(CN2CCN(c3ccc(C(=O)NS(=O)(=O)c4ccc(N[C@H](CCN5CCOCC5)CSc5ccccc5)c(S(=O)(=O)C(F)(F)F)c4)cc3)CC2)C1 [Navitoclax] (partner 0.5 µM)	Y
CC(=O)O[C@@]12CO[C@@H]1C[C@H](O)[C@@]1(C)C(=O)[C@H](O)C3=C(C)[C@@H](OC(=O)[C@H](O)[C@@H](NC(=O)OC(C)(C)C)c4ccccc4)C[C@@](O)([C@@H](OC(=O)c4ccccc4)[C@H]21)C3(C)C [Docetaxel] + C[C@@H](Oc1cc(-c2cnn(C3CCNCC3)c2)cnc1N)c1c(Cl)ccc(F)c1Cl [Crizotinib] (partner 1 µM)	N
CC(=O)O[C@@]12CO[C@@H]1C[C@H](O)[C@@]1(C)C(=O)[C@H](O)C3=C(C)[C@@H](OC(=O)[C@H](O)[C@@H](NC(=O)OC(C)(C)C)c4ccccc4)C[C@@](O)([C@@H](OC(=O)c4ccccc4)[C@H]21)C3(C)C [Docetaxel] + Cc1nc(Nc2ncc(C(=O)Nc3c(C)cccc3Cl)s2)cc(N2CCN(CCO)CC2)n1 [Dasatinib] (partner 0.075 µM)	N
CC(=O)O[C@@]12CO[C@@H]1C[C@H](O)[C@@]1(C)C(=O)[C@H](O)C3=C(C)[C@@H](OC(=O)[C@H](O)[C@@H](NC(=O)OC(C)(C)C)c4ccccc4)C[C@@](O)([C@@H](OC(=O)c4ccccc4)[C@H]21)C3(C)C [Docetaxel] + C[C@]1(O)C[C@@H](c2nc(-c3ccc4ccc(-c5ccccc5)nc4c3)c3c(N)nccn32)C1 [Linsitinib] (partner 1 µM)	N
CC(=O)O[C@@]12CO[C@@H]1C[C@H](O)[C@@]1(C)C(=O)[C@H](O)C3=C(C)[C@@H](OC(=O)[C@H](O)[C@@H](NC(=O)OC(C)(C)C)c4ccccc4)C[C@@](O)([C@@H](OC(=O)c4ccccc4)[C@H]21)C3(C)C [Docetaxel] + CC(=O)Nc1cccc(-n2c(=O)n(C3CC3)c(=O)c3c(Nc4ccc(I)cc4F)n(C)c(=O)c(C)c32)c1 [Trametinib] (partner 0.02 µM)	N
CC(=O)O[C@@]12CO[C@@H]1C[C@H](O)[C@@]1(C)C(=O)[C@H](O)C3=C(C)[C@@H](OC(=O)[C@H](O)[C@@H](NC(=O)OC(C)(C)C)c4ccccc4)C[C@@](O)([C@@H](OC(=O)c4ccccc4)[C@H]21)C3(C)C [Docetaxel] + COc1cccc2cc(-c3nc([C@H]4CC[C@H](C(=O)O)CC4)n4ncnc(N)c34)[nH]c12 [OSI-027] (partner 0.5 µM)	N

---

Reported relative viability is given for each of the following molecules.
Tested on: 201T
protocol: relative viability (nuclei count vs DMSO), 5 days (fraction); higher = more cells survive
condition.details: first compound 0.1581 µM
endpoint: relative viability

molecule	tested.target	endpoint	recorded.measurement
Nc1ccn([C@@H]2O[C@H](CO)[C@@H](O)[C@@H]2O)c(=O)n1 [Cytarabine] + N=C(N)NC(=N)NCCc1ccccc1 [Phenformin] (partner 250 µM)	201T	relative viability	0.352
COc1cc2nccc(Oc3ccc(NC(=O)Nc4cc(C)on4)c(Cl)c3)c2cc1OC [Tivozanib] + Nc1nc2[nH]cc(CCc3ccc(C(=O)N[C@@H](CCC(=O)O)C(=O)O)cc3)c2c(=O)[nH]1 [Pemetrexed] (partner 0.2 µM)	201T	relative viability	0.351
Nc1ccn([C@@H]2O[C@H](CO)[C@@H](O)[C@@H]2O)c(=O)n1 [Cytarabine] + CCNC(=O)c1noc(-c2cc(C(C)C)c(O)cc2O)c1-c1ccc(CN2CCOCC2)cc1 [Luminespib] (partner 0.01 µM)	201T	relative viability	0.982
COc1cc2nccc(Oc3ccc(NC(=O)Nc4cc(C)on4)c(Cl)c3)c2cc1OC [Tivozanib] + CC(C)C[C@H](NC(=O)[C@H](Cc1ccccc1)NC(=O)c1cnccn1)B(O)O [Bortezomib] (partner 0.002 µM)	201T	relative viability	1.07
Nc1ccn([C@@H]2O[C@H](CO)[C@@H](O)[C@@H]2O)c(=O)n1 [Cytarabine] + CC(=O)Nc1cccc(-n2c(=O)n(C3CC3)c(=O)c3c(Nc4ccc(I)cc4F)n(C)c(=O)c(C)c32)c1 [Trametinib] (partner 0.02 µM)	201T	relative viability	0.709
COc1cc2nccc(Oc3ccc(NC(=O)Nc4cc(C)on4)c(Cl)c3)c2cc1OC [Tivozanib] + COc1cc2c(Oc3ccc(NC(=O)C4(C(=O)Nc5ccc(F)cc5)CC4)cc3F)ccnc2cc1OCCCN1CCOCC1 [Foretinib] (partner 0.25 µM)	201T	relative viability	1.08
Nc1ccn([C@@H]2O[C@H](CO)[C@@H](O)[C@@H]2O)c(=O)n1 [Cytarabine] + Cc1cc(Nc2cc(N3CCN(C)CC3)nc(Sc3ccc(NC(=O)C4CC4)cc3)n2)n[nH]1 [Tozasertib] (partner 0.1 µM)	201T	relative viability	0.837

---

Reported relative viability is given for each of the following compounds.
System: NCI-H1944
protocol: relative viability (nuclei count vs DMSO), 5 days (fraction); higher = more cells survive
condition.details: first compound 15.81 µM
endpoint: relative viability

compound	tested.target	recorded.measurement
O=C(O)CCCCC(CCSCc1ccccc1)SCc1ccccc1 (stereo not given) [CPI-613] + CC(=O)c1c(C)c2cnc(Nc3ccc(N4CCNCC4)cn3)nc2n(C2CCCC2)c1=O [Palbociclib] (partner 0.5 µM)	NCI-H1944	0.312
O=C(O)CCCCC(CCSCc1ccccc1)SCc1ccccc1 (stereo not given) [CPI-613] + COc1cccc2cc(-c3nc([C@H]4CC[C@H](C(=O)O)CC4)n4ncnc(N)c34)[nH]c12 [OSI-027] (partner 0.5 µM)	NCI-H1944	0.388
O=C(O)CCCCC(CCSCc1ccccc1)SCc1ccccc1 (stereo not given) [CPI-613] + N=C(N)NC(=N)NCCc1ccccc1 [Phenformin] (partner 250 µM)	NCI-H1944	0.185
O=C(O)CCCCC(CCSCc1ccccc1)SCc1ccccc1 (stereo not given) [CPI-613] + Cc1cc(Nc2cc(N3CCN(C)CC3)nc(Sc3ccc(NC(=O)C4CC4)cc3)n2)n[nH]1 [Tozasertib] (partner 0.1 µM)	NCI-H1944	0.233
O=C(O)CCCCC(CCSCc1ccccc1)SCc1ccccc1 (stereo not given) [CPI-613] + C[C@@H](Oc1cc(-c2cnn(C3CCNCC3)c2)cnc1N)c1c(Cl)ccc(F)c1Cl [Crizotinib] (partner 1 µM)	NCI-H1944	1.02

The measurements presented in this section are drawn from the supplement of paper PMC10307832.
